Values compiled from ChEMBL document CHEMBL1140113.

Molecular target: OCT1 (SLC22A1) (Homo sapiens)
Sequence (O15245 whole entry): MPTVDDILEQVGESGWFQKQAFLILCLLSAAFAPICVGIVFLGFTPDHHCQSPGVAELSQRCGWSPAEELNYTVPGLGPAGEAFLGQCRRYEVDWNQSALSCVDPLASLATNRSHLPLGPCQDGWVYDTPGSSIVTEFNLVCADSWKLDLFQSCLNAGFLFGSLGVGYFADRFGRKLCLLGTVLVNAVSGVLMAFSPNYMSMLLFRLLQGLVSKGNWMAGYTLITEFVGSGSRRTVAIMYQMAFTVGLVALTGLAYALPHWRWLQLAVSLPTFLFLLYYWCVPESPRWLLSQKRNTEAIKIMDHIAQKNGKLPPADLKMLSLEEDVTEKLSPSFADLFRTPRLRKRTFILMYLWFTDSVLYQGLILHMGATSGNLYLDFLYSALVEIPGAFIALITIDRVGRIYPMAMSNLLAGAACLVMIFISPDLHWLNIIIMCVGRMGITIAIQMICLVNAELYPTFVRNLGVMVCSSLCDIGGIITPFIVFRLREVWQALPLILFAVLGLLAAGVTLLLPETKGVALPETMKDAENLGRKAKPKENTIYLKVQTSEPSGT
Experiment: in vitro
Conditions: HEK293 cells that express human OCT1, probe 4-(4-(dimethylamino)styryl)-N-methylpyridinium
recordedMetric: inhibition at 100 µM
I'd appreciate it if you wrote the number followed by its unit.

[[record]]
compound = "CC(=O)Nc1ccc(O)cc1 [ACETAMINOPHEN]"
measuredvalue = "-9.2%"


Provide measured inhibition at 100 µM value, entry: COc1ccc(Cc2nccc3cc(OC)c(OC)cc23)cc1OC [PAPAVERINE]
66.3%

Given the compound NC(=O)N1c2ccccc2C=Cc2ccccc21 [CARBAMAZEPINE] , write its reported inhibition at 100 µM.
8.4%

Quickly give me recorded inhibition at 100 µM for N=C(N)NC(=O)c1nc(Cl)c(N)nc1N [AMILORIDE]
68.7%
